Data provenance is patent EP0645399A2.

system under test: HIV-1 Reverse Transkriptase (Human immunodeficiency virus type 1 group M subtype B)
Construct: Rekombinante HIV-1 Reverse Transkriptase (66 kDa)
test details: HIV-1 RT test (3H-TTP incorporation, recombinant enzyme)
condition: positive control; read-out: IC₅₀ (HIV-1 RT)
assay readout: pIC50
Numbers only, as −log10 of the molar value.

pIC50 in this record for COc1cc2c(ccc3c4cc(OC)c(OC)cc4c[n+](C)c23)cc1O : 4.89
